Values were extracted from ChEMBL document CHEMBL1201862.

AC50 overview
# testedOn: UniProt P11712
# Sequence (P11712 whole entry): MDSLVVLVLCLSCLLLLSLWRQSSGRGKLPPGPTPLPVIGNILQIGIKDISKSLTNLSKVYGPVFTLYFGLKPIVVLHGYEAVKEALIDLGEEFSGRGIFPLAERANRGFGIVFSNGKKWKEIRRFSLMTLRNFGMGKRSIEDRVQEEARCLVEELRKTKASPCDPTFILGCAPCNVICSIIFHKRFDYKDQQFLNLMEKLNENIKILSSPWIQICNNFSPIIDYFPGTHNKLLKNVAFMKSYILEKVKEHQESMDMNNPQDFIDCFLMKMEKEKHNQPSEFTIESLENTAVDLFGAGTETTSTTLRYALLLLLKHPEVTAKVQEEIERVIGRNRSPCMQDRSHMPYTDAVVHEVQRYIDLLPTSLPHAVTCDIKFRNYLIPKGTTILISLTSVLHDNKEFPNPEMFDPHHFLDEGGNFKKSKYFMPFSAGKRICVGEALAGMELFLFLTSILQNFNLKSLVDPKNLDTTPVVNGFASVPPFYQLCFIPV

> print(dat)
                                    molecule                     val
 1      O=[N+]([O-])c1ccc(N2CCNCC2)cc1NC1CC1  15.8 µM (inconclusive)
 2   Nc1cc(S(=O)(=O)O)cc2ccc(S(=O)(=O)O)cc12  7.94 µM (inconclusive)
 3  Cc1ccc2c(C)nc(Nc3nc(O)cc(CSc4nc5ccccc5[nH]4)n3)nc2c1   0.1 µM (inconclusive)
 4  CCOC(=O)c1cnc2cc(-c3ccc(C(C)(C)C)cc3)nn2c1N  3.16 µM (inconclusive)
 5      COCCn1c(=O)c(-c2cccs2)nc2cnc(OC)nc21  39.8 µM (inconclusive)
 6     c1ccc2c(c1)ncn2-c1ncnc2sc3c(c12)CCCC3    20 µM (inconclusive)
 7  Cc1ccc(N(CC(N)=O)C2SC(=O)N(Cc3cccc(C(=O)O)c3)C2=O)cc1 (centres undefined)  12.6 µM (inconclusive)
 8  COCCN(CCOC)S(=O)(=O)c1ccc(C(=O)Nc2nc(C)c(C(C)=O)s2)cc1    20 µM (inconclusive)
 9  COC(=O)C(O)(c1c(C)[nH]c2ccccc12)C(F)(F)F (centres undefined)  3.16 µM (inconclusive)
10    Cn1nnnc1SCc1ccc(C(=O)Nc2ccc(Br)cc2)cc1     2 µM (inconclusive)

Form entry - test system: UniProt P11712; read-out: AC50; molecule: O=C(NC1CCCC1)C(c1ccc(F)cc1)N(Cc1ccc(F)cc1)C(=O)c1cc[nH]n1 (centres undefined) 39.8 µM (inconclusive)

For the record "Cc1ccccc1OCCNC(=O)c1ccccc1Sc1ccccc1C#N" , what value of AC50 is listed for UniProt P11712? 28.2 µM (inconclusive)

Under UniProt P11712: AC50 value of "O=C(O)[C@H](Cc1cc(I)c(O)c(I)c1)C1CCCCC1" ? 3.16 µM (inconclusive)

Provide value of AC50 for this record tested with UniProt P11712: "CCOC(=O)c1nc(O)c2c(C)c(C)sc2n1" 20 µM (inconclusive)

###

# testedOn: Protein skinhead-1 (Caenorhabditis elegans, UniProt P34707)
# Sequence (P34707 whole entry): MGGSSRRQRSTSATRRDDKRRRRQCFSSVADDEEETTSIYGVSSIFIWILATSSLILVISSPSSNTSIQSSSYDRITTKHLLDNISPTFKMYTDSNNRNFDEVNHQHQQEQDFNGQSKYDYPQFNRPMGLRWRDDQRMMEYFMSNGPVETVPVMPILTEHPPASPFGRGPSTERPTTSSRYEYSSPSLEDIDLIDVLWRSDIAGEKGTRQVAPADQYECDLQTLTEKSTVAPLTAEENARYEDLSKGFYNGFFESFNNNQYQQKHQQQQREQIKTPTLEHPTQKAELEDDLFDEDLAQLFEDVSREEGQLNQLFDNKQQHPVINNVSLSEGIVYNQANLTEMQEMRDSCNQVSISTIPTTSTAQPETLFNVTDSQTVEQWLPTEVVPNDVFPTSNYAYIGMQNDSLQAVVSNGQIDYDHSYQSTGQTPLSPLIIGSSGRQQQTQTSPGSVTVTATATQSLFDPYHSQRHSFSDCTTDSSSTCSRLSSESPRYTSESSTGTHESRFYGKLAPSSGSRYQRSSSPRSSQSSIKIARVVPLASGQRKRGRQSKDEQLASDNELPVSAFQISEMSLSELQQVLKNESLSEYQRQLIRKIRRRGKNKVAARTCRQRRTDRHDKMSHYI
# Format: functional
Activity calls are given as the source filed them.
Valid outcomes are listed here; reply with one: active, inactive

Solved entries:
> print(dat)
                                   molecule       cat
1        O=C(O)CCCN1C(=O)c2ccccc2Sc2ncccc21  inactive
2  CCOC(=O)c1c(-c2cccs2)csc1NC(=O)CN1CC(C)OC(C)C1 (stereo unspecified)  inactive
3        COn1c(-c2ccc(Cl)cc2)nc2ccc(Cl)cc21    active
4  CC1CN(S(=O)(=O)c2cccc(C(=O)OCC(=O)Nc3ccc4c(c3)OCO4)c2)CC(C)O1 (stereo unspecified)  inactive

For "CCOC(=O)c1c(C)cc(C)n2c1nc1ccccc12" , which call appears in the assay record? inactive

Which result was noted for this molecule in the test: "CCN(CC)CCOC(=O)c1ccc(NC(=O)CCCN2C(=O)/C(=C\c3cccs3)SC2=S)cc1" inactive

###

# testedOn: UniProt P55789
# Sequence (P55789 whole entry): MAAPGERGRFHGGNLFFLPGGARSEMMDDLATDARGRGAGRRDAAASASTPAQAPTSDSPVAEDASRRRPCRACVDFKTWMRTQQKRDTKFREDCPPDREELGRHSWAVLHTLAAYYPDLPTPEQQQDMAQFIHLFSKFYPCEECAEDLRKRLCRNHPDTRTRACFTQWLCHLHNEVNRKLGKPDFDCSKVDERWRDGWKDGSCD
# procedureSummary: inhibitors of human ALR sulfhydryl oxidase, dose response, biochemical, H2O2 detection, luminescence, cherry-pick (AID 493248)
Active and inactive are the calls of the source.
Documented AC50 across a set of compounds

Example entries and their recorded answers appear below.
> print(dat)
                                   compound  quantityname               val
1  Cc1ccc(-c2ccc(CCC(=O)O)n2NC(=O)c2cccs2)cc1          AC50  8150 nM (active)
2        COc1ccc2[nH]c(C)c(-c3csc(N)n3)c2c1          AC50  5230 nM (active)
3             CC1(C)Cc2nc3[nH]nc(N)c3cc2CO1          AC50  4260 nM (active)
4                Cc1ccc(N/N=C2/CCCNC2=O)cc1          AC50  2660 nM (active)
5       O=C(Nc1ccc(N2CCCCCC2)cc1)c1ccc[nH]1          AC50   420 nM (active)

Entry "O=c1/c(=C/c2ccc(O)cc2)sc2n1CCCN=2" has what AC50? 1160 nM (active)

Which value of AC50 has been reported for COc1ccc2c(c1OC)C(=O)N1N=C(c3ccc(O)cc3)CC21 (stereo unspecified) in the records? 1110 nM (active)

Quick one: AC50 of "CC(=O)N1CCN(c2ccc(NCc3cccc(C)c3)cc2)CC1" ? 787 nM (active)

AC50 lookup needed for CN1C(=O)c2ccccc2NC(=O)C1Cc1ccccc1 (stereo unspecified) , thanks. 3260 nM (active)

# AC50 lookup, item "CN(C)c1ccc(-c2nc3ccccc3n2C)cc1" 6130 nM (active)

Need AC50 of CC(=O)Nc1ccc(N2C(=O)CSC2c2ccccc2)cc1 (stereo unspecified) , thanks. 25 nM (active)
